All values here come from the RNAGym collection of RNA variant scans (doi:10.1021/acssynbio.7b00057).

B1: Pistol ribozyme (parent)
chain: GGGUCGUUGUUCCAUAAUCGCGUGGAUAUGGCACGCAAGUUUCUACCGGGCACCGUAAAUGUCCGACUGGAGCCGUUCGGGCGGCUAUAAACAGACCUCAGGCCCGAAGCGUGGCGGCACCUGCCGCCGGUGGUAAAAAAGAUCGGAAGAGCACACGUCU

Variants of: B1
Experiment: aptazyme ON/OFF ratio, guanine; higher = stronger switching; co-transcriptional cleavage with and without guanine
parameter: aptazyme ON/OFF ratio

> print(dat)
                            changes  measured.number
 1  U7A U8C G9A U10C U11G C12G C13G             1.29
 2       U7G U8C G9U U10A C12U C13A             1.21
 3      U8G G9A U10A U11G C12A C13G             1.09
 4       U7G U8A G9U U10G U11A C12G             1.09
 5       U7A U8G G9A U11A C12A C13U             1.16
 6           U7C G9A U10A C12G C13U             1.21
 7           U7A G9A U10A U11A C13G             1.08
 8  U7A U8C G9A U10A U11A C12G C13G             1.13
 9           U7G U8A U10G U11A C13A             1.18
10            U7C U8G G9U U11C C12G             1.32
11  U7A U8C G9U U10C U11A C12A C13A             1.12
12           U7C G9U U10G C12G C13G             1.12
13            U7C U8G G9A U10C U11G             1.23
14      U7C G9A U10C U11G C12A C13A             1.21
15  U7C U8A G9U U10G U11C C12G C13A             1.22
16       U7A U8A G9A U10C U11C C12G             1.05
17  U7G U8A G9C U10A U11G C12U C13G             1.01
18      U8G G9C U10A U11G C12G C13G             1.31
19            U7A U8C G9U U10C U11A             1.23
20           U8G G9C U11C C12G C13U             1.04
21           U7A U8C U11A C12A C13U             1.27
22            U7G U8A G9C U11A C13U             1.04
23  U7C U8A G9C U10A U11G C12G C13A              1.1
24  U7A U8G G9A U10C U11C C12U C13U             1.07
25      U8G G9A U10G U11C C12G C13U              1.4
26               U8A U11A C12A C13A             1.15
27                    G9C U11A C12G             1.47
28  U7G U8G G9C U10C U11G C12G C13G             1.17
29            U7A U8A G9A U11A C13G             1.11
30       U7C U8A G9A U10C U11G C12G             1.31
31                    U8G U11C C12G              1.3
32          G9U U10G U11A C12A C13U             1.37
33  U7A U8G G9A U10G U11A C12A C13G             1.41
34           U7G U8G U10A C12G C13U            0.978
35           U8C G9A U10C C12A C13G             1.18
36                 U7G U8C G9C U10A             2.18
37           U7A U8C U10G U11A C12G             1.37
38       U7C U8G G9A U10G C12G C13G              1.1
39           U7A G9C U10A U11G C12U             1.07
40                U7C G9C U10C C12A             1.04
41                U8G G9C U10G U11A             1.07
